Experiment: Ex-vivo stability in mouse whole blood, MALDI-TOF MS
Assay type: in vitro ADME
Conditions: both sexes, C57BL/6, 24 h incubation, read-out: decrease of signal
Square brackets hold non-standard residues; d marks the D form. Peptide text beside a SMILES is read from it.
metric.name: metabolised at 24 h, 1 ug/mL

molecule: C[C@H](O)[C@@H](NC(=O)CNC(=O)[C@H](N)CCCNC(=N)N)C(=O)N[C@H](Cc1ccccc1)C(=O)N[C@H](CCC(=O)O)C(=O)NCC(=O)N[C@H](CCCCN)C(=O)N[C@H](Cc1ccccc1)C(=O)O [D-AIP] (H-[dR]G[dT][dF][dE]G[dK][dF]-OH; N-terminus and C-terminus assumed)
value.measured: ~50%
--
molecule: C[C@H](O)[C@@H](NC(=O)[C@@H](Cc1ccccc1)NC(=O)[C@@H](CCCCN)NC(=O)[C@@H](CCCNC(=N)N)NC(=O)[C@@H](Cc1ccccc1)NC(=O)[C@H](N)CCC(=O)O)C(=O)NCC(=O)NCC(=O)O [sD-AIP, reference compound] (H-[dE][dF][dR][dK][dF][dT]GG-OH; N-terminus and C-terminus assumed)
value.measured: ~50%
